- measurement.description: Phase 1 clinical pharmacokinetics
- Format: in vivo, patients
- assay.setup: human, plasma, oral, 160 mg
quantity: AUC(0-t)

AUC(0-t) reading for `CCCS(=O)(=O)Nc1ccc(F)c(C(=O)c2c[nH]c3ncc(-c4ccc(Cl)cc4)cc23)c1F` : 185 µM·h
